Origin of values: patent US20250250357A1

biological target: T1, human MSLN-R3 protein (human, UniProt Q13421 487-598); assay: ELISA on coated antigen, antibody 0.01 nM
T1 construct: also called hMSLN-R3
T1 sequence (Q13421 495-606, form in doubt): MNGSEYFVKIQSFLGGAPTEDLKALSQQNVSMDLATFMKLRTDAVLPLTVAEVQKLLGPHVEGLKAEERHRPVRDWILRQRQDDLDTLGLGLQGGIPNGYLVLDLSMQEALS

binder | OD450 [OD450]
F7.44.20-H15 (scFv, not shown: small tags and cut ends, also called S009-F7.44.20 humanized antibody VH2a + VL3) scFv: EVQLVQSGAEVKKPGASVKVSCKASGYTFTDYNMDWVRQAPGQGLEWMGDINPSTGGTIYNQKFSGRVTMTEDKSASTVYMELSSLRSEDTAVYYCARRRIGTGYFDVWGQGTTVTVSSGGGGSGGGGSGGGGSEIVLTQSPATLSLSPGERATLSCSASSSVISSYLSWYQQKPGQSPRLLIYRTSNLASGIPARFSGSGSGTDYTLTISSLEPEDFAVYYCHQWSSFPYTFGGGTKVEIK | 0.04
F7.44.20-H6 (scFv, not shown: small tags and cut ends, also called S009-F7.44.20 humanized antibody VH1a + VL2) scFv: EVQLVQSGAEVKKPGASVKVSCKASGYTFTDYNMDWVRQAPGQGLEWMGDINPSTGGTIYNQKFQGRVTMTEDKSTSTVYMELSSLRSEDTAVYYCARRRIGTGYFDVWGQGTTVTVSSGGGGSGGGGSGGGGSEIVLTQSPDFQSVTPKEKVTITCSASSSVISSYLSWYQQKPDQSPKLLIYRTSNLASGVPSRFSGSGSGTDYTLTINSLEAEDAATYYCHQWSSFPYTFGGGTKVEIK | 0.05
F7.44.20-H11 (scFv, not shown: small tags and cut ends, also called S009-F7.44.20 humanized antibody VH2 + VL3) scFv: EVQLVQSGAEVKKPGASVKVSCKASGYTFTDYNMDWVRQAPGQGLEWMGDINPSTGGTIYNQKFNGRVTMTEDKSASTVYMELSSLRSEDTAVYYCARRRIGTGYFDVWGQGTTVTVSSGGGGSGGGGSGGGGSEIVLTQSPATLSLSPGERATLSCSASSSVISSYLSWYQQKPGQSPRLLIYRTSNLASGIPARFSGSGSGTDYTLTISSLEPEDFAVYYCHQWSSFPYTFGGGTKVEIK | 0.05
